The measurements presented in this section are drawn from patent US20250197436A1.

System: microbiota present in the faecal samples
protocol: Faecal fermentation, distribution of oligosaccharides (HPAEC-PAD peak areas)
condition parameters: Comp. Ex. 1 sample, 48 h, Donor A
reported metric: Peak areas

Example entries begin here.
# compound, reported metric, measured number
data = [
    ("OC[C@H]1O[C@@H](O[C@H]2[C@@H](O)[C@@H](CO)O[C@@H](O[C@H]3[C@H](O)[C@@H](CO)OC(O)[C@@H]3O)[C@@H]2O)[C@H](O)[C@@H](O)[C@H]1O (stereo partly shown)", "Peak areas", 0.0),
    ("O=C[C@H](O)[C@@H](O)[C@H](O)[C@H](O)CO", "Peak areas", 0.0),
]

a: OC[C@H]1O[C@@H](O[C@H]2[C@@H](O)[C@@H](CO)O[C@@H](O[C@H]3[C@H](O)[C@@H](O)C(O)O[C@@H]3CO)[C@@H]2O)[C@H](O)[C@@H](O)[C@H]1O (stereo partly shown)
b: O=C[C@H](O)[C@@H](O)[C@@H](O)[C@H](O)CO
When their Peak areas values are compared, which is larger, a or b ? Output the label that corresponds to your choice. a
(a: 0.1, b: 0.0)
